study_system: His-BIR2-3 (125-356, C202A/C213G, XIAP) (Homo sapiens, UniProt P98170, C202A/C213G)
Construct: additions of His-BIR2-3 (125-356, C202A/C213G, XIAP), fluorescein labeled dimeric SMAC peptide
Sequence (P98170 125-356 C202A/C213G): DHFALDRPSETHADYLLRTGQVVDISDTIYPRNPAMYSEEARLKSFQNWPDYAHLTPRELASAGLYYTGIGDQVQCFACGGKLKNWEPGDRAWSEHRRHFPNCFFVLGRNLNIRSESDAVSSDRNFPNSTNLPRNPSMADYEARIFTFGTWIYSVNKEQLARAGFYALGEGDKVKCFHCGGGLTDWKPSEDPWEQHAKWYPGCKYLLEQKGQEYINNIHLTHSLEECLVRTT
experiment_description: XIAP-BIR2-3 Dimeric SMAC Peptide Homogeneous Time Resolved Fluorescence (HTRF) Assay
measurement_context: fluorescein labeled dimeric SMAC peptide
readout_label: pIC50
Numbers only, as −log10 of the molar value.

Sample records with pIC50:
{"compound": "CN[C@@H](C)C(=O)N[C@H](C(=O)N1C[C@@H]2C[C@H]1C(=O)N[C@@H](Cc1ccc3ccccc3c1)C(=O)N[C@H](C(=O)O)Cc1ccc(cc1)C(=O)N[C@H]1C[C@@H](C(=O)N[C@@H](Cc3ccc4ccccc4c3)C(=O)N[C@H](C(=O)O)Cc3ccc(cc3)C(=O)N2)N(C(=O)[C@@H](NC(=O)[C@H](C)NC)C(C)(C)C)C1)C(C)(C)C", "pIC50": 8.60}
{"compound": "CN[C@@H](C)C(=O)N[C@H](C(=O)N1CC[C@@H]2OC/C=C/CC[C@@H](C(=O)O)NC(=O)[C@H](Cc3ccc4ccccc4c3)NC(=O)[C@@H]3[C@H](CCN3C(=O)[C@@H](NC(=O)[C@H](C)NC)C(C)(C)C)OCc3cn(nn3)[C@H](C(=O)NS(C)(=O)=O)CCCNC(=O)[C@H](Cc3ccc4ccccc4c3)NC(=O)[C@H]21)C(C)(C)C", "pIC50": 7.77}
{"compound": "CN[C@@H](C)C(=O)N[C@H](C(=O)N[C@H]1C/C=C/CC[C@@H](C(=O)O)NC(=O)[C@H](Cc2ccc3ccccc3c2)NC(=O)[C@@H]2[C@@H](CCN2C(=O)[C@@H](NC(=O)[C@H](C)NC)C(C)(C)C)OCc2cn(nn2)CC[C@@H](C(=O)OC)NC(=O)[C@H](Cc2ccc3ccccc3c2)NC1=O)C(C)(C)C", "pIC50": 8.14}
{"compound": "CN[C@@H](C)C(=O)N[C@H](C(=O)N1C[C@H]2C/C=C/COc3ccc(cc3)C[C@@H](C(=O)NS(C)(=O)=O)NC(=O)[C@H](Cc3ccc4ccccc4c3)NC(=O)[C@@H]3C[C@@H](CN3C(=O)[C@@H](NC(=O)[C@H](C)NC)C(C)(C)C)n3cc(nn3)COc3ccc(cc3)C[C@@H](C(=O)O)NC(=O)[C@H](Cc3ccc4ccccc4c3)NC(=O)[C@@H]1C2)C(C)(C)C", "pIC50": 9.05}
{"compound": "CC[C@H](NC(=O)[C@H](C)NC)C(=O)N1C[C@@H]2C[C@H]1C(=O)N[C@@H](Cc1c[nH]c3ccccc13)C(=O)N[C@H](C(=O)O)Cc1ccc(cc1)C(=O)N[C@H]1C[C@@H](C(=O)N[C@@H](Cc3ccc4ccccc4c3)C(=O)N[C@H](C(=O)O)Cc3ccc(cc3)OC/C=C/CO2)N(C(=O)[C@@H](NC(=O)[C@H](C)NC)C(C)(C)C)C1", "pIC50": 8.20}

Parameters: items (list). Returns: pIC50 for each item.
1. CN[C@@H](C)C(=O)N[C@H](C(=O)N1CC[C@@H]2OC/C=C/COc3ccc(cc3)C[C@@H](C(=O)O)NC(=O)[C@H](Cc3ccc4ccccc4c3)NC(=O)[C@@H]3[C@H](CCN3C(=O)[C@@H](NC(=O)[C@H](C)NC)C(C)(C)C)OCc3cn(nn3)[C@H](C(=O)NS(C)(=O)=O)CCCNC(=O)[C@H](Cc3ccc4ccccc4c3)NC(=O)[C@H]21)C(C)(C)C
2. CN[C@@H](C)C(=O)N[C@@H](Cc1c[nH]cn1)C(=O)N1C[C@@H]2C[C@H]1C(=O)N[C@@H](Cc1ccc3ccccc3c1)C(=O)N[C@H](C(=O)O)CCC(=O)N[C@H]1C[C@@H](C(=O)N[C@@H](Cc3ccc4ccccc4c3)C(=O)N[C@H](C(=O)O)Cc3ccc(cc3)OC/C=C/CO2)N(C(=O)[C@@H](NC(=O)[C@H](C)NC)C(C)(C)C)C1
3. CNC(C)C(=O)NC(C(=O)N1CC2CC1C(=O)NC(Cc1ccc3ccccc3c1)C(=O)NC(C(=O)O)Cc1ccc(cc1)OCc1cn(nn1)C1CC(C(=O)NC(Cc3ccc4ccccc4c3)C(=O)NC(C(=O)O)Cc3ccc(cc3)OCC=CCO2)N(C(=O)C(NC(=O)C(C)NC)C(C)(C)C)C1)C(C)(C)C (centres unmarked)
4. CN[C@@H](C)C(=O)N[C@H](C(=O)N1C[C@@H]2C[C@H]1C(=O)NC(Cc1ccc3ccccc3c1)C(=O)N[C@H](c1nnn[nH]1)Cc1ccc(cc1)OC/C=C/C[C@H]1C[C@@H](C(=O)N[C@@H](Cc3ccc4ccccc4c3)C(=O)N[C@H](C(=O)O)Cc3ccc(cc3)OCc3cn2nn3)N(C(=O)[C@@H](NC(=O)[C@H](C)NC)C(C)(C)C)C1)C(C)(C)C (some centres unmarked)

Reply |
1: 8.74; 2: 7.61; 3: 9.15; 4: 9.40

Parameters: items (list). Returns: pIC50 for each item.
1. CN[C@@H](C)C(=O)N[C@H](C(=O)N1C[C@H]2C/C=C/COc3ccc(cc3)C[C@@H](C(=O)O)NC(=O)[C@H]([C@H](C)c3ccc4ccccc4c3)NC(=O)[C@@H]3C[C@@H](CN3C(=O)[C@@H](NC(=O)[C@H](C)NC)C(C)(C)C)n3cc(nn3)COc3ccc(cc3)C[C@@H](C(=O)NS(=O)(=O)C3CC3)NC(=O)[C@H](Cc3ccc4ccccc4c3)NC(=O)[C@@H]1C2)C(C)(C)C
2. CN[C@@H](C)C(=O)N[C@H](C(=O)N1C[C@@H]2C[C@H]1C(=O)N[C@@H](Cc1ccc3ccccc3c1)C(=O)N[C@H](C(=O)O)Cc1ccc(cc1)OC/C=C/CO[C@H]1C[C@@H](C(=O)N[C@@H](Cc3ccc(-c4ccc(O)cc4)cc3)C(=O)N[C@H](C(=O)NS(=O)(=O)C3CC3)Cc3ccc(cc3)OCc3cn2nn3)N(C(=O)[C@@H](NC(=O)[C@H](C)NC)C(C)(C)C)C1)C(C)(C)C

Reply |
8.66
8.15
